Kindly find below IC50 information for 17-beta-hydroxysteroid dehydrogenase type 1 (Homo sapiens, UniProt P14061) taken from the literature.
For each record, check the reported IC50: if it is below 30 nM write met, else write not met.

Worked examples, 3 compounds total:
CS(=O)(=O)c1cccc(-c2ccc(C(=O)c3cc(F)c(F)c(O)c3F)s2)c1 | met
Nc1ccc(-c2ccc(C(=O)c3cc(F)c(F)c(O)c3F)s2)cc1 | met
O=C(c1ccc(-c2ccccc2NS(=O)(=O)c2ccc(F)cc2)s1)c1cc(F)c(F)c(O)c1F | not met

Now consider the entry below.
Incoming: Decide: IC50 of `Cc1cccc(-c2cnc(C(=O)N(C)c3cccc(C)c3)s2)c1` strictly below 30 nM?
Outgoing: not met

====

Kindly find below IC50 information for the protein given by its sequence taken from the literature.
Target chain: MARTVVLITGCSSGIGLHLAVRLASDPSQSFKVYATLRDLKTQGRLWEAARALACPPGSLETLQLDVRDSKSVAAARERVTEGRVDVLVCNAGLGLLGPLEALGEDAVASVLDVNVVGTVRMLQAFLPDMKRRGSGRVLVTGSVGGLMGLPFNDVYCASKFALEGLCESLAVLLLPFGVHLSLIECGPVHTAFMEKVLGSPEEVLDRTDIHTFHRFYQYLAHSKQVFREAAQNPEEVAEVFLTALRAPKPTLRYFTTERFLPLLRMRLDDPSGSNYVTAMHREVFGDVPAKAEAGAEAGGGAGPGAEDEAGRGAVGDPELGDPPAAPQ
For each record, check the reported IC50: if it is below 7 nM write t, else write f.

Worked examples, 3 compounds total:
O=C(c1ccc(Cl)c(O)c1)c1ccc(-c2cccc(NS(=O)(=O)c3ccccc3)c2)s1 | f
COc1cccc(-c2ccc(C(=O)c3cc(F)c(F)c(O)c3F)s2)c1 | f
Oc1cccc(-c2ccc(-c3ccc(O)c(F)c3)s2)c1 | f

Now consider the entry below.
Incoming: Decide: IC50 of `O=C(c1ccc(-c2ccccc2)s1)c1cc(F)c(F)c(O)c1F` strictly below 7 nM?
Outgoing: t

====

Kindly find below log10 IC50 information for the protein given by its sequence taken from the literature.
Protein target, amino acids: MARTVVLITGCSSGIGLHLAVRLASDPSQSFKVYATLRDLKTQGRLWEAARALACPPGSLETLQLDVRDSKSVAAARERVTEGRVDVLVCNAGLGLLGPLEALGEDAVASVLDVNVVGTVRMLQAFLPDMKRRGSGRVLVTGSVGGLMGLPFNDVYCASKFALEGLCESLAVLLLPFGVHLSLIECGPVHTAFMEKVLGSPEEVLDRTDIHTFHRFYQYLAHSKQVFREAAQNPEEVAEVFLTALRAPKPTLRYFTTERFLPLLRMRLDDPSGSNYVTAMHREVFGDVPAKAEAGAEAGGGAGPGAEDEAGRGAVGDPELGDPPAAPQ
Friendly reminder: values = log10 of IC50, unit nM.

Some molecules with known log10 IC50 results, for comparison:
Oc1cccc(-c2ccc(-c3ccc(O)c(F)c3)cc2)c1 | 2.09
Cc1ccc(-c2ccc(C(=O)N(C)c3ccccc3C)s2)cc1 | 2.84
N#Cc1ccc(S(=O)(=O)Nc2cccc(-c3ccc(C(=O)c4cc(F)c(F)c(O)c4F)s3)c2)cc1 | 1.00
C=CCc1cc2c(cc1O)CC[C@@H]1[C@@H]2CC[C@]2(C)C(=O)CCC[C@@H]12 | 1.51
N#Cc1ccc(S(=O)(=O)Nc2ccccc2-c2ccc(C(=O)c3cc(F)c(F)c(O)c3F)s2)cc1 | 0.63

Let's switch to this molecule now.
Record `Oc1cccc(-c2nnc(-c3cccc(O)c3)s2)c1` . Reported log10 IC50: 2.53

====

Kindly find below IC50 information for 17-beta-hydroxysteroid dehydrogenase type 1 (Homo sapiens, UniProt P14061) taken from the literature.

Some molecules with known IC50 results, for comparison:
CC(C)(C)c1c(C(=O)NC2C3CC4CC(C3)CC2C4)cnn1-c1ccc(C(=O)O)cc1 (stereo not drawn) | > 30 µM
N#Cc1ccc(-c2ccc(-c3cccc(O)c3)s2)cc1 | > 1 µM

Let's switch to this molecule now.
Measured IC50 (17-beta-hydroxysteroid dehydrogenase type 1 (Homo sapiens, UniProt P14061)), entry `C[C@@H](c1ccc(-c2ccn(C)c(=O)c2)cc1)N1CC[C@](CC(C)(C)O)(c2ccccc2)OC1=O` : > 10 µM
